Values compiled from ChEMBL document CHEMBL1134488.

- Test System: UniProtKB P08575
- Sequence (P08575 whole entry): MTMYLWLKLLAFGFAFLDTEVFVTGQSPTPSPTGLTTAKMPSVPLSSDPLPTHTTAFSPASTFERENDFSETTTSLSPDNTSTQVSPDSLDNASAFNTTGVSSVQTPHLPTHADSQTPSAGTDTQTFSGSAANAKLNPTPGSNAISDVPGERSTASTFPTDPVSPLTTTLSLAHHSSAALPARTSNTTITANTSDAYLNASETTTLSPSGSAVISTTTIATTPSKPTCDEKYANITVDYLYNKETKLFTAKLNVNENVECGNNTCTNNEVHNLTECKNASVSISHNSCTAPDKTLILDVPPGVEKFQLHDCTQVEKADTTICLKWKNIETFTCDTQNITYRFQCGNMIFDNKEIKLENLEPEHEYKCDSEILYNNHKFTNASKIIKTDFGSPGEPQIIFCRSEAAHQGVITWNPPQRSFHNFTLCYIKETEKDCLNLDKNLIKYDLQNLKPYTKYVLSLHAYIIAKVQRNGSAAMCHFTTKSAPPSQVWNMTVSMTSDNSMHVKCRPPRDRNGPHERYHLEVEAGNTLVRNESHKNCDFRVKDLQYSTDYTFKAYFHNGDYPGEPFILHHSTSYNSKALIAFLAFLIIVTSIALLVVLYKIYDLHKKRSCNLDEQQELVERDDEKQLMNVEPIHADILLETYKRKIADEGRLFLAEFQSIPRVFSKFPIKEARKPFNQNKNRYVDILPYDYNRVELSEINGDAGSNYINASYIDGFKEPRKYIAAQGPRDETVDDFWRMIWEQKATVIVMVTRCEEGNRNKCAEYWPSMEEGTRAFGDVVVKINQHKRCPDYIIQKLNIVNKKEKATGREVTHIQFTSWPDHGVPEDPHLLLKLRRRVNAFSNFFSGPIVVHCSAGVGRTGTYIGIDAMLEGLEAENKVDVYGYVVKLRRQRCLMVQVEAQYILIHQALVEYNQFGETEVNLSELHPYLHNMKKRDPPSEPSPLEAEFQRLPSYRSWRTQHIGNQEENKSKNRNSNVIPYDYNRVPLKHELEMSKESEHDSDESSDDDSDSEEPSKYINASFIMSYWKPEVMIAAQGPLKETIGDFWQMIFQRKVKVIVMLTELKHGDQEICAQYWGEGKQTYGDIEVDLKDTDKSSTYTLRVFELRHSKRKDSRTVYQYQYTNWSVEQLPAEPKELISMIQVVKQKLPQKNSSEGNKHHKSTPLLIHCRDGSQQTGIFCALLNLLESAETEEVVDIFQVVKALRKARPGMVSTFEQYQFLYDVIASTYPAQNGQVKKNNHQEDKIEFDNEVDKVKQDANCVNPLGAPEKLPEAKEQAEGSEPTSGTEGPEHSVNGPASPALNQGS
- Method Summary: Inhibitory concentration against CD45 protein-tyrosine phosphatase using lck-10 mer as substrate
Reported Metric: IC50 (µM)

{"Substance Smiles": "CCCC(=O)Nc1ccc2c(c1)-c1ccccc1C(=O)C2=O", "Test System": "UniProtKB P08575", "Reported Metric": "IC50", "Recorded Number": 5.2}

(A) COC(=O)CCC(=O)Nc1ccc2c(c1)C(=O)C(=O)c1cc(NC(=O)CCC(=O)OC)ccc1-2
(B) O=C(Nc1ccc2c(c1)C(=O)C(=O)c1ccccc1-2)c1ccccc1F
Task item: Parameter check: reported IC50 is higher for which label, A or B ? Give the chosen item's label as your response.
Reply: B

---

- Test System: Tyrosine-protein phosphatase non-receptor type 1 (Homo sapiens, UniProt P18031)
- Method Summary: Inhibitory concentration against PTP1B using lck as substrate
pIC50: −log10 of the molar value.
Reported Metric: pIC50

{"Substance Smiles": "O=C(Nc1ccc2c(c1)C(=O)C(=O)c1ccccc1-2)c1ccccc1F", "Reported Metric": "pIC50", "Recorded Number": 4.74}
{"Substance Smiles": "COc1ccccc1-c1ccc2c(c1)C(=O)C(=O)c1ccccc1-2", "Reported Metric": "pIC50", "Recorded Number": 4.80}
{"Substance Smiles": "O=C(COCc1ccccc1)Nc1ccc2c(c1)C(=O)C(=O)c1ccccc1-2", "Reported Metric": "pIC50", "Recorded Number": 4.74}
{"Substance Smiles": "O=C1C(=O)c2cc(-c3ccccc3F)ccc2-c2ccccc21", "Reported Metric": "pIC50", "Recorded Number": 4.74}
{"Substance Smiles": "O=C1C(=O)c2cc(-c3cc4ccccc4o3)ccc2-c2ccccc21", "Reported Metric": "pIC50", "Recorded Number": 4.72}

---

- Test System: Tyrosine-protein phosphatase non-receptor type 1 (Homo sapiens, UniProt P18031)
- Sequence (P18031 whole entry): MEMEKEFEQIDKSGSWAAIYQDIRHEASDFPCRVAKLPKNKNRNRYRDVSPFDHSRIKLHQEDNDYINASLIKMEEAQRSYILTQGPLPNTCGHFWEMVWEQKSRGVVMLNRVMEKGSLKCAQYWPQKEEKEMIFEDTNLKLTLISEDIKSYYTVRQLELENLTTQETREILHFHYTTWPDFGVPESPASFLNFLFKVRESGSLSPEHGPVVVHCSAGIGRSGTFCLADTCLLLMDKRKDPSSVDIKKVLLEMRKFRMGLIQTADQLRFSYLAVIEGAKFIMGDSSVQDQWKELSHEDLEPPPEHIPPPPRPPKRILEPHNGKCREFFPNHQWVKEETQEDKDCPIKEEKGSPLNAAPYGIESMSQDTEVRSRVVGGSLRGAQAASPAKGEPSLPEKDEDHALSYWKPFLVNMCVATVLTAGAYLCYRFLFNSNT
- Method Summary: Inhibitory concentration against PTP1B lusing lck-10mer as substrate
pIC50: −log10 of the molar value.
Reported Metric: pIC50

Task item: Fill in the recorded pIC50 for this molecule, with Tyrosine-protein phosphatase non-receptor type 1 (Homo sapiens, UniProt P18031) as test system: `Nc1ccc2c(c1)C(=O)C(=O)c1ccccc1-2`
Reply: < 4.52

---

- Test System: Procathepsin L (Homo sapiens)
- Sequence (P07711 whole entry): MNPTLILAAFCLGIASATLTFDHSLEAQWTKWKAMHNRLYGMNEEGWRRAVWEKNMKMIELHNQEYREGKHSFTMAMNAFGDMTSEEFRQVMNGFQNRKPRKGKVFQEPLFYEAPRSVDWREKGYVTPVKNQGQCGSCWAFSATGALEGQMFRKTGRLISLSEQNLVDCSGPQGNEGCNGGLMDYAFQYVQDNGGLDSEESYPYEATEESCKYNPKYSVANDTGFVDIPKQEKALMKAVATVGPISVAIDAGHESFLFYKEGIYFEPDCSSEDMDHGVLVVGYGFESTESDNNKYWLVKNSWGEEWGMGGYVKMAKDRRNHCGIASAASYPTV
pIC50: −log10 of the molar value.
Reported Metric: pIC50

{"Substance Smiles": "O=C1C(=O)c2cccnc2-c2ccccc21", "Recorded Number": 6.22}
{"Substance Smiles": "O=C(Nc1ccc2c(c1)C(=O)C(=O)c1ccccc1-2)c1ccccc1F", "Recorded Number": 6.40}

(A) CC(C)(C)C(=O)Nc1ccc2c(c1)C(=O)C(=O)c1ccccc1-2
(B) O=C(O)CNC(=O)c1ccc2c(c1)C(=O)C(=O)c1ccccc1-2
Task item: Parameter check: reported pIC50 is higher for which label, A or B ? Give the chosen item's label as your response.
Reply: A
(A: 6.30, B: 6.05)
